These data points were gathered from BigSolDB 2.1.

- experimental-parameters: in n-hexane, 313.15 K
quantity: solubility (mole fraction)

## Task So what does the record say about solubility (mole fraction) for C=C1C[C@]23C[C@@]1(O)CC[C@H]2[C@@]12C=C[C@H](O)[C@@](C)(C(=O)O1)[C@H]2[C@@H]3C(=O)O ?
## Result 0.000511

###

- experimental-parameters: in ethyl acetate, 283.15 K
quantity: solubility (mole fraction)
Just the number, please, no unit attached.

## Task Fill in: solubility (mole fraction) of C=C1C[C@]23C[C@@]1(O)CC[C@H]2[C@@]12C=C[C@H](O)[C@@](C)(C(=O)O1)[C@H]2[C@@H]3C(=O)O is ___
## Result 0.0807
